From: the RepoRT retention time repository

# Protocol Description: HILIC, Waters ACQUITY UPLC BEH Amide, 100 × 2.1 mm, 1.7 µm; A: water + 0.125% formic acid + 10 mM ammonium formate; B: 5% water + 95% acetonitrile + 0.125% formic acid + 10 mM ammonium formate; gradient (min/%B) 0/100 2/100 7.7/70 9.5/40 10.25/30 12.75/100 17/100
# Conditions Used: stereoisomer not certain
Readout Label: LC retention time (min)

Compound: NC(Cc1ccc(O)cc1)C(=O)NC(Cc1ccc(O)cc1)C(=O)O (stereo unspecified)
Readout Label: LC retention time
Endpoint Unit: min
Value Measured: 7.38

1. CN1CCN2c3ncccc3Cc3ccccc3C2C1 (stereo unspecified)
2. C=C(OP(=O)(O)O)C(=O)O
3. O=C(O)c1cc(=O)c2ccccc2[nH]1
4. Clc1ccc(CON=C(Cn2ccnc2)c2ccc(Cl)cc2Cl)c(Cl)c1
Rank the 4 compounds: largest LC retention time first, smallest last. Please, when replying, give the labels in the order that was requested.
2, 3, 1, 4

1. NC(N)=NCC(=O)O
2. CN1CCN(CCCN2c3ccccc3Sc3ccc(Cl)cc32)CC1
3. COc1cc(-c2oc3cc(O)cc(O)c3c(=O)c2OC2OC(CO)C(O)C(O)C2O)ccc1O (stereo unspecified) [Isorhamnetin-3-glucoside]
4. O=C1C(c2c(O)[nH]c3ccccc23)=Nc2ccccc21
Please put the entries in order of rising LC retention time. Please, when replying, give the labels in the order that was requested.
4, 2, 3, 1
(4: 1.07 min, 2: 2.56 min, 3: 4.49 min, 1: 8.16 min)

P. NC(=O)C(N)Cc1c[nH]c2ccccc12 (stereo unspecified) [Tryptophanamide]
Q. CC(=O)NCCCCCCNC(C)=O
Which of the two items, P and Q , has the greater recorded LC retention time? Output the label that corresponds to your choice.
P

1. NC1CCCCC1
2. CSCCC(N)C(=O)O (stereo unspecified)
Identify the entry with the smaller LC retention time: 1 or 2 . Output the label that corresponds to your choice.
1
